// data source = patent EP4725957A1

Exercise: state measured MIC for each of the compounds provided.
- Tested on: Klebsiella pneumoniae KPN+19-15
- Assay type: cell-based
- condition_summary: KPN+19-15
- Protocol: The minimal inhibitory concentration (MIC) was determined by the broth microdilution method according to the recommended procedures of the Clinical and Laboratory Standards Institute (CLSI). An appropriate amount of the cyclic lipopeptide compounds prepared in Examples 1-120 and the reference standards were weighed and dissolved in sterile pure water. […]
Bridge positions count the residues as written; N and C are the ends. Square brackets hold non-standard residues; d marks the D form. Peptide text beside a SMILES is read from it. * marks the point of attachment. Heptanoyl = CCCCCCC(=O)*; Orn = NCCC[C@H](N)C(=O)O; Dab = NCC[C@H](N)C(=O)O; Dap = NC[C@H](N)C(=O)O
Answers are plain numbers, in µg/mL.

- CCCCCCC(=O)N[C@@H](CCCN)C(=O)N[C@H](C(=O)N[C@H](CO)C(=O)N[C@H]1CCNC(=O)[C@H]([C@@H](C)O)NC(=O)[C@H](CCN)NC(=O)[C@H](CCN)NC(=O)[C@H]([C@@H](C)O)NC(=O)[C@@H](Cc2ccccc2)NC(=O)[C@H](CCN)NC1=O)[C@@H](C)O [Compound 59] (Heptanoyl-[Orn]T[dS][Dab][Dab][dF]T[Dab][Dab]T; lactam 4-C): 0.5

**Q:** Dear colleague, I am looking for the recorded MIC of the following compound: CCCCCCC(=O)N[C@@H](CCN)C(=O)N[C@H](C(=O)N[C@@H](CN)C(=O)N[C@H]1CCNC(=O)[C@H]([C@@H](C)O)NC(=O)[C@H](CCN)NC(=O)[C@H](CCN)NC(=O)[C@H](CC(C)C)NC(=O)[C@@H](Cc2ccccc2)NC(=O)[C@H](CCN)NC1=O)[C@@H](C)O [Compound 39] (Heptanoyl-[Dab]T[Dap][Dab][Dab][dF]L[Dab][Dab]T; lactam 4-C)
**A:** 0.03

---

Exercise: state measured MIC for each of the compounds provided.
- Tested on: Klebsiella pneumoniae KPN+19-15
- Format: cell-based
- condition_summary: KPN+19-15
- Experimental: The minimal inhibitory concentration (MIC) was determined by the broth microdilution method according to the recommended procedures of the Clinical and Laboratory Standards Institute (CLSI). An appropriate amount of the cyclic lipopeptide compounds prepared in Examples 1-120 and the reference standards were weighed and dissolved in sterile pure water. […]
Bridge positions count the residues as written; N and C are the ends. Square brackets hold non-standard residues; d marks the D form. Peptide text beside a SMILES is read from it. * marks the point of attachment. dOrn = NCCC[C@@H](N)C(=O)O; X1 = CC[C@H](C)CCCCC(=O)*; Heptanoyl = CCCCCCC(=O)*; Dab = NCC[C@H](N)C(=O)O
Give bare numbers, in µg/mL.

• CCCCCCC(=O)N[C@@H](CCN)C(=O)N[C@H](C(=O)N[C@@H](CCN)C(=O)N[C@H]1CCNC(=O)[C@H]([C@@H](C)O)NC(=O)[C@H](CCN)NC(=O)[C@H](CCN)NC(=O)[C@H]([C@@H](C)O)NC(=O)[C@@H](Cc2ccccc2)NC(=O)[C@H](CCN)NC1=O)[C@@H](C)O [Compound 19] (Heptanoyl-[Dab]T[Dab][Dab][Dab][dF]T[Dab][Dab]T; lactam 4-C) = 0.03

Lab note: next compound to report on.
**Q:** Dear colleague, I am looking for the recorded MIC of the following compound: CC[C@H](C)CCCCC(=O)N[C@@H](CCN)C(=O)N[C@H](C(=O)N[C@H](CCCN)C(=O)N[C@H]1CCNC(=O)[C@H]([C@@H](C)O)NC(=O)[C@H](CCN)NC(=O)[C@H](CCN)NC(=O)[C@H]([C@@H](C)O)NC(=O)[C@@H](Cc2ccccc2)NC(=O)[C@H](CCN)NC1=O)[C@@H](C)O [Compound 21] (X1-[Dab]T[dOrn][Dab][Dab][dF]T[Dab][Dab]T; lactam 4-C)
**A:** 0.125
